read-out: Vascular endothelial growth factor receptor 2 (Homo sapiens); assay: BSK_4H_VEGFRII: BioMAP Diversity Plus: 4H Assay for Vascular endothelial growth factor receptor 2 (VEGFR2) Biomarker Activity (AID 2283031); conditions: primary human endothelial cells (HUVEC); actives raise or lower the signal
Active and inactive are the calls of the source. The calls were made as follows: active = hit-call score of the fitted dose curve at least 0.9, where 1 is the maximum; inactive = score below 0.9.
Possible outcomes: active, inactive

{"columns": ["compound", "class"],
 "data": [
  ["Clc1ccc(C(c2ccccc2Cl)C(Cl)(Cl)Cl)cc1 (configuration not stated)", "active"],
  ["CCCCCCCCOC(=O)c1ccccc1C(=O)OCCCCCCCC", "inactive"],
  ["CN(C)CCO", "inactive"],
  ["O=NN(c1ccccc1)c1ccccc1", "inactive"],
  ["ClC1=C(Cl)[C@]2(Cl)[C@@H]3[C@@H]4C[C@@H]([C@H]5O[C@@H]45)[C@@H]3[C@@]1(Cl)C2(Cl)Cl", "inactive"],
  ["ClC1=C(Cl)[C@]2(Cl)[C@@H]3[C@@H](Cl)[C@H]4O[C@H]4[C@@H]3C1(Cl)C2(Cl)Cl", "inactive"],
  ["CC(C)(c1ccccc1)c1ccc(O)cc1", "inactive"]
]}

###

read-out: Monocyte Chemoattractant Protein-1 (MCP1), CCL2 (gene 6347); experiment: BSK_3C_MCP1: BioMAP Diversity Plus: 3C Assay for Monocyte Chemoattractant Protein-1 (MCP1) Biomarker Activity (AID 2283017); details: primary human endothelial cells (HUVEC); actives raise or lower the signal
The source made the active and inactive calls. Rule for the calls: active = hit-call score of the fitted dose curve at least 0.9, where 1 is the maximum; inactive = score below 0.9.
Possible outcomes: active, inactive

{"columns": ["compound", "class"],
 "data": [
  ["Oc1c(Cl)c(Cl)c(Cl)c(Cl)c1Cl", "active"],
  ["O=C(O)C(F)(F)C(F)(F)C(F)(F)C(F)(F)C(F)(F)F", "inactive"],
  ["CN(C)c1nc(=O)n(C2CCCCC2)c(=O)n1C", "inactive"],
  ["CCNc1nc(NC(C)C)nc(SC)n1", "inactive"],
  ["CC(C)C(=O)OCC(C)(C)C(OC(=O)C(C)C)C(C)C (stereo unspecified)", "inactive"],
  ["CCC(=O)O[C@H]1CC[C@H]2[C@@H]3CCC4=CC(=O)CC[C@]4(C)[C@H]3CC[C@]12C", "active"]
]}

###

assay: APR_HepG2_MitoMembPot_72hr: Apredica 72-hour HepG2 Assay for Mitochondrial Membrane Potential (AID 2282917); settings: imaging, actives raise or lower the signal
Active and inactive are the calls of the source. Rule for the calls: active = hit-call score of the fitted dose curve at least 0.9, where 1 is the maximum; inactive = score below 0.9.
Possible outcomes: active, inactive

{"columns": ["structure.smiles", "class"],
 "data": [
  ["CCOC(=O)C(O)(c1ccc(Cl)cc1)c1ccc(Cl)cc1", "inactive"],
  ["CC1=C2C[C@H]3[C@@H](CC=C4C[C@@H](O)CC[C@@]43C)[C@@H]2CC[C@]12O[C@@H]1C[C@H](C)CN[C@H]1[C@H]2C", "inactive"],
  ["CC#Cc1cc(C)nc(Nc2ccccc2)n1", "inactive"],
  ["Cc1cccc(C)c1N", "inactive"],
  ["C[C@]12CCC(=O)C=C1CC[C@@H]1[C@@H]2CC[C@]2(C)C(=O)CC[C@@H]12", "inactive"],
  ["Oc1c(Cl)c(Cl)c(Cl)c(Cl)c1Cl", "inactive"],
  ["Cc1ccccc1[N+](=O)[O-]", "inactive"],
  ["Clc1ccc(Cl)cc1", "inactive"],
  ["CCCCCCCCCC[N+](C)(C)CCCCCCCCCC", "active"],
  ["O=C(O)C(F)(F)C(F)(F)C(F)(F)C(F)(F)C(F)(F)C(F)(F)C(F)(F)C(F)(F)C(F)(F)F", "inactive"],
  ["CCCN(CCC)N=O", "inactive"],
  ["Nn1cnnc1", "inactive"]
]}
